Each recorded value in this set is attributed to ChEMBL document CHEMBL1139414.

biological target: Protein kinase C alpha type (Mus musculus, UniProt P20444)
pKi: −log10 of the molar value.
Returns Y if the recorded pKi is greater than or equal to 7, and N otherwise.

The following compounds have reported results that may help.
1. CC(C)(C)CC(=O)OCC1(CO)C/C(=C/c2ccc(F)c(Br)c2)C(=O)O1 (racemic); Y
2. CC(C)(C)CC(=O)OCC1(CO)C/C(=C/c2cc(C(F)(F)F)cc(C(F)(F)F)c2)C(=O)O1 (racemic); Y

Query compound follows.
Decide: pKi of CCCCC(/C=C1/CC(CO)(COC(=O)c2ccccc2C)OC1=O)CC (racemic) >= 7? N
